B1: PLAGL1 (parent)
chain: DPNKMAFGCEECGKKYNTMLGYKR

Variants of: B1
Assay: protein stability index of a GFP-peptide fusion (GPS, HEK-293T) (PSI 1-6); higher = more stable;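 also: lentivirally expressed fusions sorted by FACS into six bins by GFP to DsRed ratio, PSI derived from sequencing read proportions per bin multiplied by bin number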
Settings: c terminus: a fixed tail appended
Below is a list of entries, each paired with its recorded protein stability index value.
Lab note: jot the number down without any unit.

Known protein stability index results, listed for orientation:
MUTATION STRING: A6H
protein stability index: 2.53
--
MUTATION STRING: P2Y
protein stability index: 2.51
--
MUTATION STRING: G13H
protein stability index: 2.45
--
MUTATION STRING: G8L
protein stability index: 2.82

For the variant Y22G , what protein stability index is on record?
3.07

Origin of values: the supplement of paper PMC10567573
